MEASURED_ON: BCL-XLΔC (Homo sapiens)
Sequence (Q07817 1-212 limits assumed, stated change not applied): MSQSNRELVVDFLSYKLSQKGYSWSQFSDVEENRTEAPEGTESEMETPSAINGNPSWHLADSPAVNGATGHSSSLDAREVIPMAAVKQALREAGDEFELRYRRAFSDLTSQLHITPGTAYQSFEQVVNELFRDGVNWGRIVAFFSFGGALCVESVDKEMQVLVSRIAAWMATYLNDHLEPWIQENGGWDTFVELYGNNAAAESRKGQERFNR
EXPERIMENT: High-throughput competitive FP binding screen, FITC-BAD BH3/BCL-XLΔC interaction
ASSAY_CONDITIONS: FITC-BAD BH3/BCL-XLΔC interaction pair, competitive FP screen
RESULT_TYPE: BCL-XL % Bound (%)
Reply numerically in %, unit not repeated.

In: Look up BCL-XL % Bound for this molecule: O=C(O)c1cccc(-c2ccc(/C=C3\Sc4ccccc4C3=O)o2)c1
Out: 95.42

In: Look up BCL-XL % Bound for this molecule: O=C(OCC1O[C@H](OC(=O)c2cc(O)c(O)c(OC(=O)c3cc(O)c(O)c(O)c3)c2)[C@H](OC(=O)c2cc(O)c(O)c(OC(=O)c3cc(O)c(O)c(O)c3)c2)[C@@H](OC(=O)c2cc(O)c(O)c(OC(=O)c3cc(O)c(O)c(O)c3)c2)[C@@H]1OC(=O)c1cc(O)c(O)c(OC(=O)c2cc(O)c(O)c(O)c2)c1)c1cc(O)c(O)c(OC(=O)c2cc(O)c(O)c(O)c2)c1 (stereo partly shown) [Tannic Acid, reference compound]
Out: 98.26

In: Look up BCL-XL % Bound for this molecule: O=C1C2=C(C(=O)c3ccccc31)C(c1ccccc1O)c1sc(=O)[nH]c1S2 (stereo not shown)
Out: 88.86

In: Look up BCL-XL % Bound for this molecule: Cc1ccc(C)n1Cc1ccc(C(=O)O)cc1
Out: 91.45

In: Look up BCL-XL % Bound for this molecule: Oc1ccc(/C=N/c2cccc(C(F)(F)F)c2)c(O)c1
Out: 75.68

In: Look up BCL-XL % Bound for this molecule: N#CC1=C(c2ccc(Cl)cc2)C2CSc3ccccc3C2NC1=O (stereo not shown)
Out: 87.67

In: Look up BCL-XL % Bound for this molecule: CN1c2ccccc2C(C)(C)C12C=Cc1cc(O)ccc1O2 (stereo not shown)
Out: 111

In: Look up BCL-XL % Bound for this molecule: c1ccc2c(c1)nc(Nc1ccc(N3CCCCC3)cc1)c1nncn12
Out: 90.45

In: Look up BCL-XL % Bound for this molecule: COc1ccc(-n2nc3cc(C)c(N)c(Br)c3n2)cc1
Out: 83.97

In: Look up BCL-XL % Bound for this molecule: C=CCN1C(=O)C(C#N)=C(C)/C(=C\c2ccc(-c3cccc(C(=O)O)c3)o2)C1=O
Out: 89.24

In: Look up BCL-XL % Bound for this molecule: O=C1CSCC(=O)N1c1cc(C(F)(F)F)cc(C(F)(F)F)c1
Out: 101.7

In: Look up BCL-XL % Bound for this molecule: CC(C)CNC(=O)CCc1nc(-c2ccccc2)no1
Out: 92.21

In: Look up BCL-XL % Bound for this molecule: CCCCc1c(C)sc(NC(=S)Nn2cnnc2)c1C(=O)OCC
Out: 69.53

In: Look up BCL-XL % Bound for this molecule: O=S(=O)(Nc1ccc(Oc2ccc(Cl)cc2C2CCCCC2)nc1)c1cccc2nonc12
Out: 103.4

In: Look up BCL-XL % Bound for this molecule: COc1cc(C2Nc3cccc4cccc(c34)N2)cc(I)c1O
Out: 81.48

In: Look up BCL-XL % Bound for this molecule: CC(C)CSC1=NSC2=NC(=O)/C(=C\c3ccc(SCc4ccco4)o3)C(=N)N12
Out: 82.8

In: Look up BCL-XL % Bound for this molecule: O=C(/C=C/c1ccco1)Nc1ccc2ccccc2c1
Out: 112.7

In: Look up BCL-XL % Bound for this molecule: O=C1COc2ccc(-c3cs/c(=N\c4ccc(F)cc4)n3/N=C/c3ccc(O)c(O)c3)cc2N1
Out: 97.64

In: Look up BCL-XL % Bound for this molecule: NC1=C(c2nc3ccccc3s2)CC(=O)N1CCc1ccccc1
Out: 108.5

====

Would you mind telling me the reported MCL-1% Bound of each entry?
MEASURED_ON: MCL-1ΔNΔC (Homo sapiens)
Sequence (Q07820 172-320 limits assumed, stated change not applied): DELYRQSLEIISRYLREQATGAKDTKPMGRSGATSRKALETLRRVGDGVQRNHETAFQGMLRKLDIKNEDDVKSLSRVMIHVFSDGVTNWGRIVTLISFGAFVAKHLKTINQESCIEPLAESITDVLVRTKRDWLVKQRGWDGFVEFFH
EXPERIMENT: High-throughput competitive FP binding screen, FITC-MCL-1 SAHB/MCL-1ΔNΔC interaction
Design: the C-terminal alpha-helix was deleted from each of these constructs; GST (N, cleaved yes); made in house
ASSAY_CONDITIONS: FITC-MCL-1 SAHB/MCL-1ΔNΔC interaction pair, competitive FP screen
Include the unit right after the number.

In: Look up MCL-1% Bound for this molecule: O=C(CCN1C(=O)/C(=C\C=C\c2ccco2)SC1=S)Nc1ccc(C(=O)O)c(O)c1
Out: 21.54%

In: Look up MCL-1% Bound for this molecule: N#CC1=C(c2ccc(Cl)cc2)COC1=O
Out: 27.28%

In: Look up MCL-1% Bound for this molecule: CCCCc1c(C)sc(NC(=S)Nn2cnnc2)c1C(=O)OCC
Out: 4.578%

In: Look up MCL-1% Bound for this molecule: c1ccc(-c2ccc3c(c2)c2c4n3CCN=C4CCC2)cc1
Out: 20.34%

In: Look up MCL-1% Bound for this molecule: CS(=O)(=O)CS(=O)(=O)NNc1ncc(C(F)(F)F)cc1Cl
Out: 41.29%

In: Look up MCL-1% Bound for this molecule: O=C(c1ccc(O)cc1)N1CCN(c2cccc(Cl)c2)CC1
Out: 27.72%

In: Look up MCL-1% Bound for this molecule: CCCCn1c(=O)[nH]c(=O)c2c1nc(-c1cccs1)c(=O)n2C
Out: 6.013%

In: Look up MCL-1% Bound for this molecule: CN(C)c1ccc(/C=C2\SC(=O)N(CCC(=O)Nc3ccccc3)C2=O)cc1
Out: 29.45%

In: Look up MCL-1% Bound for this molecule: COC(=O)/C=C1/OC(c2ccc(Cl)cc2)=CC1=O
Out: 21.79%

In: Look up MCL-1% Bound for this molecule: O=C(O)/C(S)=C\C=C\c1ccccc1
Out: 44.36%

In: Look up MCL-1% Bound for this molecule: CC(C)(C)c1ccc(-c2nnc(S)[nH]2)cc1
Out: 47.97%

====

System: MCL-1ΔNΔC
EXPERIMENT: High-throughput competitive FP binding screen, FITC-MCL-1 SAHB/MCL-1ΔNΔC interaction
ASSAY_CONDITIONS: selectivity for MCL-1ΔNΔC over BCL-XLΔC targeting (BCL-XL % Bound minus MCL-1 % Bound)
Returns one of Fulfilled or Not fulfilled; Fulfilled when Spec Values is >= 60.

In: Check if Spec Values >= 60 (inclusive). Item: COC(=O)/C=C1/OC(c2ccc(Cl)cc2)=CC1=O
Out: Fulfilled

In: Check if Spec Values >= 60 (inclusive). Item: c1cc2nsnc2c2c1Nc1nc3nonc3nc1N2
Out: Fulfilled

In: Check if Spec Values >= 60 (inclusive). Item: CS(=O)(=O)CS(=O)(=O)NNc1ncc(C(F)(F)F)cc1Cl
Out: Fulfilled

In: Check if Spec Values >= 60 (inclusive). Item: O=C1/C(=C\C=C\c2ccco2)SC(=S)N1NCc1ccccc1O
Out: Fulfilled

In: Check if Spec Values >= 60 (inclusive). Item: Oc1cccnc1NC(c1ccc(F)cc1)c1ccc2cccnc2c1O (centres unmarked)
Out: Fulfilled

In: Check if Spec Values >= 60 (inclusive). Item: CCOC(=O)/C(C#N)=C\c1ccc(N2CCOCC2)cc1
Out: Fulfilled

In: Check if Spec Values >= 60 (inclusive). Item: Cc1ccc(NC(=S)Nc2ccc3nc(-c4ccco4)c(-c4ccco4)nc3c2)cc1
Out: Fulfilled

In: Check if Spec Values >= 60 (inclusive). Item: CC(C)C(C(=O)O)N1C(=O)/C(=C/C=C/c2ccco2)SC1=S (centres unmarked)
Out: Fulfilled

In: Check if Spec Values >= 60 (inclusive). Item: O=c1cc(-c2ccccc2)oc2cc(O)c(O)c(O)c12 [drawing 19]
Out: Fulfilled

In: Check if Spec Values >= 60 (inclusive). Item: CCOC(=O)c1cc(CC)sc1NC(=O)C=C(C)C
Out: Fulfilled

In: Check if Spec Values >= 60 (inclusive). Item: Oc1ccc(SSc2ccc(O)cc2)cc1
Out: Not fulfilled

In: Check if Spec Values >= 60 (inclusive). Item: CCOc1ccc(NC(=O)CC2C(=O)N(Cc3ccco3)C(=S)N2CCNC(C)=O)cc1 (centres unmarked)
Out: Fulfilled

In: Check if Spec Values >= 60 (inclusive). Item: O=C(O)C(Cc1ccccc1)N1C(=O)/C(=C\c2ccco2)SC1=S (centres unmarked)
Out: Fulfilled

In: Check if Spec Values >= 60 (inclusive). Item: CC1=C(C#N)C(=O)N(C)C(=O)/C1=C/c1ccc(-c2cccc(Cl)c2C)o1
Out: Fulfilled

In: Check if Spec Values >= 60 (inclusive). Item: COc1ccc2c(c1)CC[C@@H]1C2CC[C@@]2(C)C1CC[C@@H]2NCCCCCCN1C(=O)CCC1=O (some centres unmarked) [drawing 365]
Out: Not fulfilled

In: Check if Spec Values >= 60 (inclusive). Item: COc1ccc(N(C)C(=S)Nc2ccc3nc(-c4ccco4)c(-c4ccco4)nc3c2)cc1 [drawing 44]
Out: Fulfilled

In: Check if Spec Values >= 60 (inclusive). Item: O=C(NN=C1CCCC1)c1ccccc1NS(=O)(=O)c1cccs1
Out: Fulfilled

In: Check if Spec Values >= 60 (inclusive). Item: Oc1ccc(/C=N/NC(=S)Nc2ccc(Cl)cc2Cl)c(O)c1O
Out: Fulfilled

In: Check if Spec Values >= 60 (inclusive). Item: Cc1cccc(C(=O)Oc2ccc3oc(=O)sc3c2)c1
Out: Not fulfilled

In: Check if Spec Values >= 60 (inclusive). Item: COc1ccc(-c2nc3scc(CCNC(=O)/C=C/c4ccco4)n3n2)cc1
Out: Not fulfilled
